Reported viability at 8 h, 500 ng/well values for the following compounds.
assay: MTT viability assay after treatment with Fluc mRNA/amino lipidated peptoid formulations; type: cell-based; details: human, HeLa cells, Relative Viability (%) No PEG
Please respond with the number in % and leave the unit unwritten.

Recorded results for 2 compounds are shown here.
# COMPOUND, NUMERIC VALUE
measured = [
    ("CCCCCCCCCCCCCCCCCCN(CC(N)=O)C(=O)CN(CCCCCCCCCCCCCCCCCC)C(=O)CN(CCc1ccccc1)C(=O)CN(CCc1ccccc1)C(=O)CN(CCN)C(=O)CN(CCc1ccccc1)C(=O)CN(CCc1ccccc1)C(=O)CN(CCN)C(=O)CN(CCc1ccccc1)C(=O)CN(CCc1ccccc1)C(=O)CNCCN [Compound 5]", 56.8),
    ("CCCCCCCCCCCCN(CC(N)=O)C(=O)CN(CCCCCCCCCCCC)C(=O)CN(CCc1ccccc1)C(=O)CN(CCc1ccccc1)C(=O)CN(CCN)C(=O)CN(CCc1ccccc1)C(=O)CN(CCc1ccccc1)C(=O)CN(CCN)C(=O)CN(CCc1ccccc1)C(=O)CN(CCc1ccccc1)C(=O)CNCCN [Compound 3]", 91.2),
]

With those in mind, consider the next compound.
# compound CCCCCCCCCCN(CC(N)=O)C(=O)CN(CCCCCCCCCC)C(=O)CN(CCc1ccccc1)C(=O)CN(CCc1ccccc1)C(=O)CN(CCN)C(=O)CN(CCc1ccccc1)C(=O)CN(CCc1ccccc1)C(=O)CN(CCN)C(=O)CN(CCc1ccccc1)C(=O)CN(CCc1ccccc1)C(=O)CN(CCN)C(=O)CN(CCc1ccccc1)C(=O)CN(CCc1ccccc1)C(=O)CNCCN [Compound 11] ; its viability at 8 h, 500 ng/well = 104
